List of inhibition values.
Target under test: Dual specificity protein phosphatase 6 (Homo sapiens)
Procedure text: DUSP6 inhibitors restoring Erk phosphorylation by chemical complementation, primary imaging in DUSP6-transfected HeLa (AID 609);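 note: phospho-Erk level distribution per well compared with pooled transfected vehicle control wells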
Settings: HeLa MKP-3 transfected, phospho-Erk imaging KS statistic; at 10 µM; stronger effect = higher value; cells stimulated with TPA for 15 min
Measurement type: inhibition (%)

>>> value("CCCC1Cc2c(sc3nc(SC)nc(N)c23)CO1 (stereo unspecified)")
-3.97
>>> value("CCN(CC)c1nc(-c2cccc(OC)c2O)nc2ccccc12")
4.37
>>> value("CCC(NC(=O)Nn1cnnc1)(C(F)(F)F)C(F)(F)F")
1.98
>>> value("O=c1[nH]c2sc3c(c2c(=O)n1Cc1ccccc1)CCC3")
9.07
>>> value("CCCCCOc1ccc(C(=O)NCC(=O)NCC(=O)OCC)cc1")
1.63
>>> value("O=c1c2ccccc2ncn1Cc1ccco1")
-15.1
